- Tested Target: T1, recombinant human IGF-II (Insulin-like Growth Factor II) (human, UniProt P01344 25-91, biotinylated (Biotinyl-IGF-II, GroPep) where immobilised in SPR, site not stated; not biotinylated in ITC and as SPR analyte)
- T1 construct: also called IGF2; IGF-2
- T1 sequence (P01344 25-91 limits assumed): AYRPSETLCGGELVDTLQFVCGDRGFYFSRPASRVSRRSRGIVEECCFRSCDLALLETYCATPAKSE
- Protocol Summary: SPR, steady-state KD relative to wild type
Recorded Relative Affinity by entry

Answered examples (3):
Binder	Reported Property	Measured Result
IGF2R domain 11 E1544K (amino acids 1511-1650, C-terminal His6 tag, from Pichia pastoris) (receptor, also called enhanced mutant) NEHDDCQVTNPSTGHLFDLSSLSGRAGFTAAYSKKGLVYMSICGENENCPPGVGACFGQTRISVGKANKRLRYVDQVLQLVYKDGSPCPSKSGLSYKSVISFVCRPEAGPTNRPMLISLDKQTCTLFFSWHTPLACEQATHHHHHH	Relative Affinity	6.12 fold (wild type = 1.00)
wild type IGF2R domain 11 (amino acids 1511-1650) with C-terminal His6 tag, from Pichia pastoris (receptor, also called WT; wild type domain 11) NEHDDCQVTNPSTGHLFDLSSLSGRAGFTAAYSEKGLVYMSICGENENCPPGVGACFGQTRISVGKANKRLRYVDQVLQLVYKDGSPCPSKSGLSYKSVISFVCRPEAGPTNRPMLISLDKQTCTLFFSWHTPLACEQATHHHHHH	Relative Affinity	1 fold (wild type = 1.00)
IGF2R domain 11 E1544V (amino acids 1511-1650, C-terminal His6 tag, from Pichia pastoris) (receptor) NEHDDCQVTNPSTGHLFDLSSLSGRAGFTAAYSVKGLVYMSICGENENCPPGVGACFGQTRISVGKANKRLRYVDQVLQLVYKDGSPCPSKSGLSYKSVISFVCRPEAGPTNRPMLISLDKQTCTLFFSWHTPLACEQATHHHHHH	Relative Affinity	1.96 fold (wild type = 1.00)

Proceed to the following item.
Prompt: What does the data say about its Relative Affinity? Entry: IGF2R domain 11 E1544A (amino acids 1511-1650, C-terminal His6 tag, from Pichia pastoris) (receptor) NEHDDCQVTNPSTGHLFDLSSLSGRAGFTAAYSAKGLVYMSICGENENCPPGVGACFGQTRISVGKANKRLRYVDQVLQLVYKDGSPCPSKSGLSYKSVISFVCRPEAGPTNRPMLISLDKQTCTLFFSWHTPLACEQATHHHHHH
Completion: 2.79 fold (wild type = 1.00)
